Assay: Liver microsomal stability (rat)
Type: in vitro ADME
Settings: rat, liver microsomes, pH 7.4, rat liver microsomes; read-out: Half life T-half
readout-type: half-life (min)

A. CC(=O)N1CC=C(c2cnc(NCc3c(F)ccc4c3CCO4)n3cnnc23)CC1
B. O=C(C1CCOCC1)N1CC=C(c2cnc(NCc3c(F)ccc4c3CCO4)n3cnnc23)CC1
C. CS(=O)(=O)N1CC=C(c2cnc(NCc3c(F)ccc4c3CCO4)n3cnnc23)CC1
D. CC(=O)N1CCC(c2cnc(NCc3c(F)ccc4c3CCO4)n3cnnc23)CC1
Query: Ranking field: half-life; order: falling. Give your ranking as a list of the labels in the requested order.
Result: D, C, B, A
(D: 86.9 min, C: 55.2 min, B: 21.1 min, A: 14.6 min)

1. O=C(CN1CCOCC1)N1CC=C(c2cnc(NCc3c(F)ccc4c3CCO4)n3cnnc23)CC1
2. Fc1ccc2c(c1CNc1ncc(C3=CCOCC3)c3nncn13)CCO2
Query: Input pair: 1 , 2 . Output: entry with lower half-life. State your choice using its label.
Result: 1

###

Assay: Liver microsomal stability (human)
Assay type: in vitro ADME
Details: human liver microsomes
readout-type: Liver clearance rate Clint Hep In Vivo Extpl (mL/min)

Guide cases for Liver clearance rate Clint Hep In Vivo Extpl, answers given:
Query: Request the reported Liver clearance rate Clint Hep In Vivo Extpl associated with Fc1ccc2c(c1CNc1ncc(C3CCOCC3)c3nncn13)CCO2 [E-Y47]
Result: 386

Query: Request the reported Liver clearance rate Clint Hep In Vivo Extpl associated with CC(=O)N1CC=C(c2cnc(NCc3c(F)ccc4c3CCO4)n3cnnc23)CC1 [E-Y15]
Result: 691

Query: Request the reported Liver clearance rate Clint Hep In Vivo Extpl associated with CC(=O)N1CCC(c2cnc(NCc3c(F)ccc4c3CCO4)n3cnnc23)CC1 [E-Y50]
Result: 156

Query: Request the reported Liver clearance rate Clint Hep In Vivo Extpl associated with O=C(CN1CCOCC1)N1CC=C(c2cnc(NCc3c(F)ccc4c3CCO4)n3cnnc23)CC1 [E-Y40]
Result: 941

Query: Request the reported Liver clearance rate Clint Hep In Vivo Extpl associated with CS(=O)(=O)N1CC=C(c2cnc(NCc3c(F)ccc4c3CCO4)n3cnnc23)CC1 [E-Y13]
Result: 804

Query: Request the reported Liver clearance rate Clint Hep In Vivo Extpl associated with Fc1ccc2c(c1CNc1ncc(C3=CCOCC3)c3nncn13)CCO2 [E-Y1]
Result: 777

I. O=C(C1CCOCC1)N1CC=C(c2cnc(NCc3c(F)ccc4c3CCO4)n3cnnc23)CC1 [E-Y43]
II. CN(C)CC(=O)N1CC=C(c2cnc(NCc3c(F)ccc4c3CCO4)n3cnnc23)CC1 [E-Y54]
III. CN(C)CC(=O)N1CC=C(c2cnc(NCc3c(F)ccc4c3CCO4)n3cnnc23)CC1 [E-Y54-H]
Query: Could you please order the items by Liver clearance rate Clint Hep In Vivo Extpl, going from the lowest number to the highest? Give your ranking as a list of the labels in the requested order.
Result: II, III, I

###

Tested on: Pfeiffer cells
Assay: Pfeiffer cell growth inhibition in a long term (11 days), CellTiter-Glo
Assay type: cell-based, Human
Details: Homo sapiens, 264 h, 11 days, read-out: Experiment on Pfeiffer cell growth inhibition in a long term (11 days IC50)
pIC50: −log10 of the molar value.
readout-type: pIC50

Query: Request the reported pIC50 associated with "C=CC(=O)N1CC=C(c2cnc(NCc3c(F)ccc4c3CCO4)n3cnnc23)CC1"
Result: 8.74

Query: Request the reported pIC50 associated with "CCS(=O)(=O)N1CC=C(c2cnc(NCc3c(F)ccc4c3CCO4)n3cnnc23)CC1"
Result: 8.74

Query: Request the reported pIC50 associated with "CCNC(=O)N1CCC(c2cnc(NCc3c(F)ccc4c3CCO4)n3cnnc23)CC1"
Result: 7.80

Query: Request the reported pIC50 associated with "CS(=O)(=O)N1CC=C(c2cnc(NCc3c(F)ccc4c3CCO4)n3cnnc23)CC1"
Result: 8.49

Query: Request the reported pIC50 associated with "O=S(=O)(C1CC1)N1CC=C(c2cnc(NCc3c(F)ccc4c3CCO4)n3cnnc23)CC1"
Result: 8.35

Query: Request the reported pIC50 associated with "CC(=O)N1CCC=C(c2cnc(NCc3c(F)ccc4c3CCO4)n3cnnc23)CC1"
Result: 8.22

a. CC(C)(C)NC(=O)N1CCC(c2cnc(NCc3c(F)ccc4c3CCO4)n3cnnc23)CC1
b. CCNC(=O)N1CC=C(c2cnc(NCc3c(F)ccc4c3CCO4)n3cnnc23)CC1
c. O=C(CN1CCOCC1)N1CC=C(c2cnc(NCc3c(F)ccc4c3CCO4)n3cnnc23)CC1
Query: Output the entries ranked by pIC50 from maximum down to minimum. Give your ranking as a list of the labels in the requested order.
Result: b, c, a
(b: 8.57, c: 8.27, a: 8.00)

###

Biological target: PRC2 enzyme (Homo sapiens (Human), UniProt O75530)
Sequence (O75530 whole entry): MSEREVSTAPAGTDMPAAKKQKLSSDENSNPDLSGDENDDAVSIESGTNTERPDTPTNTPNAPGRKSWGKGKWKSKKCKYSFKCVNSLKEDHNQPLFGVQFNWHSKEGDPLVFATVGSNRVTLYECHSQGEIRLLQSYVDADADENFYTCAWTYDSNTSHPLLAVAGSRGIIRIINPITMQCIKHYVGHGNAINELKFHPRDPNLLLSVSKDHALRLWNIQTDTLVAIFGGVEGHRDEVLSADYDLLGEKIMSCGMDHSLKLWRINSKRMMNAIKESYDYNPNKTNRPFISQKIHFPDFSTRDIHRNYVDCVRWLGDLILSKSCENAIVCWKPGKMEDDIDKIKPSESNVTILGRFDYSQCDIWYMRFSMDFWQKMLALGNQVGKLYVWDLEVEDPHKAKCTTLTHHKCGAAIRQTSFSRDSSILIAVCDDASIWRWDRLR
Sequence (Q15910 whole entry partner): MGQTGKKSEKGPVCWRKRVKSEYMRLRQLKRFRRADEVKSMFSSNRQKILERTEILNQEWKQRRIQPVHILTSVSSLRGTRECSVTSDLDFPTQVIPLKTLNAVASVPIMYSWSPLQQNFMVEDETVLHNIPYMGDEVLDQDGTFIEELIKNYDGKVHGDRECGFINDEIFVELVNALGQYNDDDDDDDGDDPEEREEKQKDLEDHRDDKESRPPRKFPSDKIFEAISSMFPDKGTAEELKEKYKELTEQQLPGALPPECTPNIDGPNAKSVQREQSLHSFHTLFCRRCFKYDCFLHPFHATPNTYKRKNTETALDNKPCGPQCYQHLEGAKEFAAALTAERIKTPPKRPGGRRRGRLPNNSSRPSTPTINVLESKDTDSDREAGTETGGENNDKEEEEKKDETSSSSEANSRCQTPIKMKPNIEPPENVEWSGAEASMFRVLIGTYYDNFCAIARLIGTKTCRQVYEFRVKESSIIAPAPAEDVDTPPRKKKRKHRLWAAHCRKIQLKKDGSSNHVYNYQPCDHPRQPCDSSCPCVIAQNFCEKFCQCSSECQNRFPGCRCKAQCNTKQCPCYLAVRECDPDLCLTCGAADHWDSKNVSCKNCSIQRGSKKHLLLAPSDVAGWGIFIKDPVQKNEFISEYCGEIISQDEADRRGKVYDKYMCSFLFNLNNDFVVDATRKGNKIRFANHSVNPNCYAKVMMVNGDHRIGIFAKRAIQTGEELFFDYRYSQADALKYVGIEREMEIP
Sequence (Q15022 whole entry partner): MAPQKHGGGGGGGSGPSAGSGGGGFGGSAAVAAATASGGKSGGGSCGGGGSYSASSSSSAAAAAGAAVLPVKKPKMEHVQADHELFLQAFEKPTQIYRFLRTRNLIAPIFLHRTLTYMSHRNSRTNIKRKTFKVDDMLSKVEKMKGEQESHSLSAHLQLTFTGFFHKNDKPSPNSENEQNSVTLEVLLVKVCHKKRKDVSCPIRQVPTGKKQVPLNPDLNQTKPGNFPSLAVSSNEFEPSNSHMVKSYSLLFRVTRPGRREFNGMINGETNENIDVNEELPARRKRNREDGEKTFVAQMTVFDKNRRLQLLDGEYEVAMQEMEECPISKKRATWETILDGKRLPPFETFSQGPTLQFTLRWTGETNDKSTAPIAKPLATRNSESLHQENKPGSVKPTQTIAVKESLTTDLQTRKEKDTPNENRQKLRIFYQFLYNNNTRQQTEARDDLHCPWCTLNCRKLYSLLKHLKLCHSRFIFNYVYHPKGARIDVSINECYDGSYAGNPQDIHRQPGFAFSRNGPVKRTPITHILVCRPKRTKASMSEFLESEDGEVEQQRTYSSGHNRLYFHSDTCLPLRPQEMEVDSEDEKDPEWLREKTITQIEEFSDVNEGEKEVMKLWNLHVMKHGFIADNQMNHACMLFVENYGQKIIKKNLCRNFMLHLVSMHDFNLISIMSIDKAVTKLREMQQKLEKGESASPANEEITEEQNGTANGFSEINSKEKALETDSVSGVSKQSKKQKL
pIC50: −log10 of the molar value.
readout-type: pIC50

Guide cases for pIC50, answers given:
Query: Request the reported pIC50 associated with "CC(=O)N1CCC(c2cnc(NCc3ccco3)n3cnnc23)CC1"
Result: 7.03

Query: Request the reported pIC50 associated with "COC(=O)N1CCC=C(c2cnc(NCc3c(F)ccc4c3CCO4)n3cnnc23)CC1"
Result: 8.66

Query: Request the reported pIC50 associated with "Cc1ccc(NC(=O)N2CC=C(c3cnc(NCc4ccco4)n4cnnc34)CC2)cc1"
Result: 7.04

I. CC(=O)N1CC=C(c2cnc(NCc3c(F)ccc4c3CCO4)n3cnnc23)CC1
II. CC(=O)N1CC=C(c2cnc(NCc3ccco3)n3cnnc23)CC1
Query: Input pair: I , II . Output: entry with lower pIC50. State your choice using its label.
Result: II
(II: 6.78, I: 8.25)

###

Experiment: Liver microsomal stability (mouse)
Format: in vitro ADME
Details: mouse liver microsomes
readout-type: Intrinsic clearance rate in vivo Clint In Vitro (mL/min/gprot)

Query: Request the reported Intrinsic clearance rate in vivo Clint In Vitro associated with Fc1ccc2c(c1CNc1ncc(C3CCOCC3)c3nncn13)CCO2 [E-Y47]
Result: 17.3

1. CC(=O)N1CCC(c2cnc(NCc3c(F)ccc4c3CCO4)n3cnnc23)CC1 [E-Y50]
2. Fc1ccc2c(c1CNc1ncc(C3=CCOCC3)c3nncn13)CCO2 [E-Y1]
3. O=C(C1CCOCC1)N1CC=C(c2cnc(NCc3c(F)ccc4c3CCO4)n3cnnc23)CC1 [E-Y43]
4. CN(C)CC(=O)N1CC=C(c2cnc(NCc3c(F)ccc4c3CCO4)n3cnnc23)CC1 [E-Y54]
Query: Could you please order the items by Intrinsic clearance rate in vivo Clint In Vitro, going from the lowest number to the highest? Give your ranking as a list of the labels in the requested order.
Result: 1, 2, 4, 3

a. CS(=O)(=O)N1CC=C(c2cnc(NCc3c(F)ccc4c3CCO4)n3cnnc23)CC1 [E-Y13]
b. O=C(CN1CCOCC1)N1CC=C(c2cnc(NCc3c(F)ccc4c3CCO4)n3cnnc23)CC1 [E-Y40]
c. CC(=O)N1CC=C(c2cnc(NCc3c(F)ccc4c3CCO4)n3cnnc23)CC1 [E-Y15]
Query: Could you please order the items by Intrinsic clearance rate in vivo Clint In Vitro, going from the lowest number to the highest? Give your ranking as a list of the labels in the requested order.
Result: a, c, b

###

Test: Liver microsomal stability (human)
Type: in vitro ADME
Details: human liver microsomes
readout-type: Intrinsic clearance rate in vivo Clint In Vitro (mL/min/gprot)

Guide cases for Intrinsic clearance rate in vivo Clint In Vitro, answers given:
Query: Request the reported Intrinsic clearance rate in vivo Clint In Vitro associated with Fc1ccc2c(c1CNc1ncc(C3=CCOCC3)c3nncn13)CCO2 [E-Y1]
Result: 21.1

Query: Request the reported Intrinsic clearance rate in vivo Clint In Vitro associated with Fc1ccc2c(c1CNc1ncc(C3CCOCC3)c3nncn13)CCO2 [E-Y47]
Result: 6.79

a. CC(=O)N1CC=C(c2cnc(NCc3c(F)ccc4c3CCO4)n3cnnc23)CC1 [E-Y15]
b. CC(=O)N1CCC(c2cnc(NCc3c(F)ccc4c3CCO4)n3cnnc23)CC1 [E-Y50]
Query: Input pair: a , b . Output: entry with lower Intrinsic clearance rate in vivo Clint In Vitro. State your choice using its label.
Result: b
(b: 2.28 mL/min/gprot, a: 16.7 mL/min/gprot)

###

Biological target: PRC2 enzyme (Homo sapiens (Human), UniProt O75530)
pIC50: −log10 of the molar value.
readout-type: pIC50

Query: Request the reported pIC50 associated with CC1CC(c2cnc(NCc3c(F)ccc4c3CCO4)n3cnnc23)=CCO1 (centres unmarked)
Result: 7.85

Query: Request the reported pIC50 associated with CS(=O)(=O)NC1CC=C(c2cnc(NCc3ccco3)n3cnnc23)CC1 (centres unmarked)
Result: 6.47

Query: Request the reported pIC50 associated with "Fc1ccc2c(c1CNc1ncc(C3CCOCC3)c3nncn13)CCO2"
Result: 7.89

Query: Request the reported pIC50 associated with "O=C(NC(=S)N1CC=C(c2cnc(NCc3c(F)ccc4c3CCO4)n3cnnc23)CC1)c1ccccc1"
Result: 7.26

Query: Request the reported pIC50 associated with CS(=O)(=O)c1ccc(-c2cnc(NCc3ccco3)n3cnnc23)cc1 [EED226, reference compound]
Result: 6.98

A. Fc1ccc2c(c1CNc1ncc(C3=CCOc4ccccc43)c3nncn13)CCO2
B. CN(C)CC(=O)N1CC=C(c2cnc(NCc3c(F)ccc4c3CCO4)n3cnnc23)CC1
C. CS(=O)(=O)N1CCC(c2cnc(NCc3c(F)ccc4c3CCO4)n3cnnc23)CC1
Query: Output the entries ranked by pIC50 from maximum down to minimum. Give your ranking as a list of the labels in the requested order.
Result: B, C, A
(B: 8.30, C: 7.97, A: 7.65)
